Method: Single dose pharmacokinetics study of oral estriol in postmenopausal women
Format: in vivo, human
Condition: female, human, plasma; oral dose 5 mg; 48 hours; read-out: Average plasma level
Outcome Measure: concentration at 48 h (ng/mL)

| Structure Smiles String | Recorded Result |
| --- | --- |
| C[C@]12CC[C@@H]3c4ccc(O)cc4CC[C@H]3[C@@H]1C[C@@H](O)[C@@H]2O | 0.011 |

* * *

Method: Single dose pharmacokinetics study of oral estriol in postmenopausal women
Type: in vivo, human
Condition: female, human, plasma; oral dose 20 mg; 48 hours; read-out: Average plasma level

| Structure Smiles String | concentration at 48 h |
| --- | --- |
| C[C@]12CC[C@@H]3c4ccc(O)cc4CC[C@H]3[C@@H]1C[C@@H](O)[C@@H]2O | 0.03 ng/mL |

* * *

Method: Single dose pharmacokinetics study of oral estriol in postmenopausal women
Assay type: in vivo, human
Condition: female, human, plasma; oral dose 5 mg; 24 hours; read-out: Average plasma level
Protocol: A single dose pharmacokinetics study was conducted to evaluate the pharmacokinetics of different oral dosages of estriol in postmenopausal women. In total 16 women were assigned to two different groups (Cohort A and Cohort B). Each Cohort received two estriol treatments. […] A wash-out period of 7 days was taken into account between the treatments.
Outcome Measure: concentration at 24 h (ng/mL)

| Molecule | Recorded Result |
| --- | --- |
| C[C@]12CC[C@@H]3c4ccc(O)cc4CC[C@H]3[C@@H]1C[C@@H](O)[C@@H]2O [estriol, estra-1,3,5(10)-triene-3,16α,17β-triol] | 0.017 |

* * *

Method: Single dose pharmacokinetics study of oral estriol in postmenopausal women
Assay type: in vivo, human
Condition: female, human, plasma; oral dose 20 mg; 72 hours; read-out: Average plasma level
Outcome Measure: concentration at 72 h (pg/mL)

| Compound | Outcome Measure | Recorded Result |
| --- | --- | --- |
| C[C@]12CC[C@@H]3c4ccc(O)cc4CC[C@H]3[C@@H]1C[C@@H](O)[C@@H]2O [estriol, estra-1,3,5(10)-triene-3,16α,17β-triol] | concentration at 72 h | 8 |

* * *

Method: Single dose pharmacokinetics study of oral estriol in postmenopausal women
Format: in vivo, human
Condition: female, human, plasma; oral dose 40 mg; 72 hours; read-out: Average plasma level
Outcome Measure: concentration at 72 h (ng/mL)

| Compound | Recorded Result |
| --- | --- |
| C[C@]12CC[C@@H]3c4ccc(O)cc4CC[C@H]3[C@@H]1C[C@@H](O)[C@@H]2O [estriol, estra-1,3,5(10)-triene-3,16α,17β-triol] | 0.013 |

* * *

Method: Single dose pharmacokinetics study of oral estriol in postmenopausal women
Type: in vivo, human
Condition: female, human, plasma; oral dose 40 mg; 24 hours; read-out: Average plasma level

| Structure Smiles String | Measure Unit | concentration at 24 h |
| --- | --- | --- |
| C[C@]12CC[C@@H]3c4ccc(O)cc4CC[C@H]3[C@@H]1C[C@@H](O)[C@@H]2O | ng/mL | 0.121 |

* * *

Method: Single dose pharmacokinetics study of oral estriol in postmenopausal women
Assay type: in vivo, human
Condition: female, human, plasma; oral dose 5 mg; 72 hours; read-out: Average plasma level

| Structure Smiles String | Measure Unit | concentration at 72 h |
| --- | --- | --- |
| C[C@]12CC[C@@H]3c4ccc(O)cc4CC[C@H]3[C@@H]1C[C@@H](O)[C@@H]2O | pg/mL | 2 |

The reported measurements were obtained from patent US20210046085A1.
